Assay: soluble on expression in E. coli; label from the status in PepcDB or PDB records
measureName: soluble on expression in E. coli

MSLIGKHFIITGATSGLGFAITNELLQRGAHVTILARNIDKFNRIKENYFKPEHINVIKCDLMQRKDIESLQKFLNTPINGFIYSSGVGYFKSISEHSTREVVETYEVNLTNFNLLYKVIQPQLVKAAYIVGISSQAALVSQANAAHYGASKAGFSAVLNALRLEQPELKVLNVQPGPIDTPFQKNADPTLKYFKNYRHMMIQPQQLAKQIVEGIILNKIEINQPSWMQEGHHHHHH	not soluble
MINHKIFPTADAVVKSLADDMLAYSQQGQPVHISLSGGSTPKMLFKLLASQPYANDIQWKNLHFWWGDERCVAPDDAESNYGEANALLFSKINMPAQNIHRILGENEPQAEAERFAQAMAHVIPTENGTPVFDWILLGVGADGHTASLFPGQTDYADANLSVVASHPESGQLRVSKTAKVLQAAKRISYLVLGAGKAEIVEQIHTTPAEQLPYPAAKIHSTSGVTEWYLDSDAAAKIA	soluble
MPNQVLFCITKMRYEEKRIYHYLEESGLSIKIMLDSSNLDEVVAHNSDYCLCIVRVMSQHRAFRIAEYMEALGIPTLNSSRAIQICADKAIQALILANRDVIKQPHFSILRNYEDLSNFNGKMVVKPVSSSWGRGISLIENEDALTTWKISHQELDIQNQNLPYLIQEFIDKPNYDVRIVIINTKPVVAFKRVSANNWKTNTHLGATVVPIVIDDSINKIVTEIIKVVGPGIYGLDLMKNRQNEWIFCEINQNPEFAHSWKIHHVDVAEKIAQYVSSKVKVGQKNASTHLEHHHHHH	not soluble
MSAIEVTNLVKKFHGQTVLHGIDLEVKPGEVVAIIGPSGSGKTTLLRCINLLEQPEAGTIKVGDIIIDTARPFSQQKGLIRQLRQHVGFVFQSFNLFPHRTVLENIIEGPVIVKGEPKAEATALARELLAKVGLAGKESRYPRRLSGGQQQRVAIARALAMRPEVILFDEPTSALDPELVGEVLNTIRQLAQEKRTMVIVTHEMSFARDVADRAIFMDQGQIVEQGPAKTLFADPQHPRTRQFLEKFLVK	not soluble
GPGSMRGIARPTVATVGLSQQVVAFDEWVWALNELGGRESFRKNWRYYALRIDTVHFLMFVLDVLNGQALDEARQYLKEVTSHYHEVPLLVVFNNFREGHRRFDISEFEALIHLDKLRRRHGADVLSCVCDISVVHSKNRQLPRTLSSTLRTLSSLLKARSKSENGGDGGAPPVPKATTSFSASVVGGAAGDAAAGDGVVHS	not soluble

[in] Could you share which soluble on expression in E. coli value was measured for MAPWKIEEVKTLKGLIKSKPVVAIVDMMDVPAPQLQEIRDKIRDKVKLRMSRNTLIIRALKEAAEELNNPKLAELANYVERGAAILVTDMNPFKLYKLLEENKSPAPVRGGQIAPCDIKVEKGSTGMPPGPFLGELKSVGIPAAIEKGKIAIKEDKVVVKKGEVVSPKLAAVLDRLGIKPIKVGLNILAVYEDGIIYTPDVLKVDEEKLLADI ?
[out] soluble

[in] Entry under review: MFYAHNVDFRVFADFLYLLRVRNSGNVVLILDNASFHKSSYVLATASRLNINLLFLPPYSLDLNRIEFGRI . Reported soluble on expression in E. coli?
[out] soluble

[in] Endpoint output: soluble on expression in E. coli of MSLAELAAVPAAPDDRLYSADNTQSSGETIRHLTWSGYEAANVQRPFEKKFDCQTGVDLFTSNLDAFNRLDDGAWREFDHATFDMAWLPDLAEAGLIRPLDYEAWKPYTFDKYTDLFQRENGYEFAFLDEDYNFDADGQLYGVPQRFGWASFALNTDVVSESDARSYDAAWADEYDVGVYDLPFWGVQIVMLREGIDPYATHTDAEVERIREATVALFENAAGVYADVGSLNTALAAGDIDIAFVSGNWINGSLRRGGRFEYEARVPDEGGVIWVETTTMLKGSHPSVSTNYLAYMQHGITAKNLMWPTVGGTNVVPHQSSIDRLNRRQRTVLRIDDLQDIIDKSRFYTGEGHHHHHH . Value?
[out] soluble

[in] Item MGSDKIHHHHHHHKKTFDYIFNKTEAITLEQSKLTLSKDITVLSFSDSSMVDRNSSIIKVDSGWIVYSKNSESSILSFTSDGQFSGYIGHRGNGPGEYTSVYDVVVNQKSKVLEVLSDGGIFCYTFGGDFLDKKEVTYPAFSFAIDDRQNYWFYVGNNTTYGDAKMICTDENIANVAYYLHQKSNMLPMVENNFGRNGEWLTFHESLNHDLYTIENGKLDLSYAMDFPNYKLPKKLHELSGMEVIEELQRSNYASIINYLENHDYIFLNVLLNNEGERIPEVYYWIISKNLQEEVIIKIDGGISAESYLFNTQYLSNDNKLYCLGYIWENKDVESFEENLNPSVVALEFNELFSKVR has what recorded soluble on expression in E. coli?
[out] not soluble

[in] Returns the measured soluble on expression in E. coli for the input sequence. Input: MSLKTGRFDQAQADAFAERLLSVLNDAALTLMISIGHRTGLFDVMDKLDFASSEVIAEAAGCNERYVREWLNALVVGGIVDYDAHTKAYQLPAEHASFLTRKSSPQNMAVVAQFIPVLAYVENGIVDAFKHGGGVPYEAYHRFHEVMAEESGQTILSSLTDKILPMVHGLVDKLNQGIQVLDIGCGYGRALILMAKTYPQSQFTGYDLCDETIAHAVHSAKKNKIQNIHFEKMDLSVWDEQEKYDLITSFDVIHDQAKPAQVLSNVFKALKPHGIFLMQDIKTSSDVAGNVHHPLGALIYTISCMHCMTVSLSQNGLGLGAAWGEELAEKMLVEAGFGKIEKHYLEHDIMNTYYVMRKEGHHHHHH
[out] soluble

[in] For the sequence MAHQLLIGKGMITLNLKRIFLALTLLPLFAVAADDCALSDPTLTVQAYTVNPQTERVKMYWQKANGEAWGTLHALLADINSQGQVQMAMNGGIYDESYAPLGLYIENGQQKVALNLASGEGNFFIRPGGVFYVAGDKVGIVRLDAFKTSKEIQFAVQSGPMLMENGVINPRIHPNVASSKIRNGVGINKHGNAVFLLSQQATNFYDFACYAKAKLNVEQLLYLDGTISHMYMKGGAIPWQRYPFVTMISVERKGLEHHHHHH , what soluble on expression in E. coli is on record?
[out] not soluble
